Items are presented alongside their recorded Activity.
target: 5-hydroxytryptamine receptor 1A (Homo sapiens) (UniProt P08908); assay: Agonist activity at human 5-HT1A receptor expressed in HEK293 cells assessed as stimulation of cAMP levels at 0.1 uM relative to 8-OH-DPAT; format: functional, cell-based
Lab book: enter the figure in %, no units written.

Please look up its Activity: Cc1cn2c3c(=O)n(C)c(=O)n(C)c3nc2n1CCCCCN1CCN(c2ccc(Cl)c(Cl)c2)CC1
2.3

Please look up its Activity: Cc1cccc(N2CCN(CCCCn3c(C)cn4c5c(=O)n(C)c(=O)n(C)c5nc34)CC2)c1C
55.7

Please look up its Activity: Cn1c(=O)c2c(nc3n(CCCCCN4CCN(c5ccc(Cl)cc5)CC4)c(-c4ccccc4)cn23)n(C)c1=O
-7

Please look up its Activity: Cn1c(=O)c2c(nc3n(CCCCN4CCN(c5ccccc5O)CC4)c(-c4ccccc4)cn23)n(C)c1=O
23.4

Please look up its Activity: Cn1c(=O)c2c(nc3n(CCCCCN4CCN(c5ccccc5O)CC4)c(-c4ccccc4)cn23)n(C)c1=O
22.9

---

biological target: UniProt:P19327; experiment: Displacement of [3H]8-OH-DPAT from rat hippocampus 5-HT1A receptor assessed as total radioligand binding at 1.66 x 10^-7 M incubated for 20 mins by microbeta plate reader based method
Sequence (P19327 whole entry): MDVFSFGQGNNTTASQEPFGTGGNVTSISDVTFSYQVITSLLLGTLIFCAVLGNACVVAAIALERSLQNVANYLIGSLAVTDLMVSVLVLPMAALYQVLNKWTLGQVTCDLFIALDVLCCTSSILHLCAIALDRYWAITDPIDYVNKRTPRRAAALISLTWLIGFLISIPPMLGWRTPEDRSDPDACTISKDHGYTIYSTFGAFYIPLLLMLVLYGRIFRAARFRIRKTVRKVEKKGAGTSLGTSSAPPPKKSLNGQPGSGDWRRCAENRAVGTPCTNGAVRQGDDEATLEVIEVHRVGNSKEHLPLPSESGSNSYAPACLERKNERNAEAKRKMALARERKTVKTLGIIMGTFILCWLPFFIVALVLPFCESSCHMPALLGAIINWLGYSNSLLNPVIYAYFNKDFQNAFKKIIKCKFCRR
Items are presented alongside their recorded Activity.
Lab book: enter the figure in %, no units written.

- MOLECULE: "Cc1cn2c3c(=O)n(C)c(=O)n(C)c3nc2n1CCCCN1CCN(c2ccc(Cl)c(Cl)c2)CC1"
  EXPERIMENTAL_TARGET: "UniProt:P19327"
  Activity, %: 74

Please look up its Activity: Cn1c(=O)c2c(nc3n(CCCCN4CCN(c5ccccc5O)CC4)ccn23)n(C)c1=O
40

Please look up its Activity: CC[C@@H](CO)NC(=O)[C@@H]1C=C2c3cccc4c3c(cn4C)C[C@H]2N(C)C1
18

Please look up its Activity: Cn1c(=O)c2c(nc3n(CCCCN4CCN(c5ccc(Cl)c(Cl)c5)CC4)c(=O)ccn23)n(C)c1=O
97

Please look up its Activity: Cc1cn2c3c(=O)n(C)c(=O)n(C)c3nc2n1CCCCN1CCN(c2ccccc2O)CC1
44

Please look up its Activity: Cn1c(=O)c2c(nc3n(CCCCN4CCN(c5ccccc5O)CC4)c(-c4ccccc4)cn23)n(C)c1=O
42

Please look up its Activity: Cn1c(=O)c2c(nc3n(CCCCCN4CCN(c5ccc(Cl)c(Cl)c5)CC4)ccn23)n(C)c1=O
78

Please look up its Activity: Cn1c(=O)c2c(nc3n(CCCCN4CCN(c5ccc(Cl)c(Cl)c5)CC4)ccn23)n(C)c1=O
51

Please look up its Activity: Cc1cccc(N2CCN(CCCCn3c(C)cn4c5c(=O)n(C)c(=O)n(C)c5nc34)CC2)c1C
75

---

Target: 5-hydroxytryptamine receptor 1A (Homo sapiens) (UniProt P08908)
Sequence (whole entry): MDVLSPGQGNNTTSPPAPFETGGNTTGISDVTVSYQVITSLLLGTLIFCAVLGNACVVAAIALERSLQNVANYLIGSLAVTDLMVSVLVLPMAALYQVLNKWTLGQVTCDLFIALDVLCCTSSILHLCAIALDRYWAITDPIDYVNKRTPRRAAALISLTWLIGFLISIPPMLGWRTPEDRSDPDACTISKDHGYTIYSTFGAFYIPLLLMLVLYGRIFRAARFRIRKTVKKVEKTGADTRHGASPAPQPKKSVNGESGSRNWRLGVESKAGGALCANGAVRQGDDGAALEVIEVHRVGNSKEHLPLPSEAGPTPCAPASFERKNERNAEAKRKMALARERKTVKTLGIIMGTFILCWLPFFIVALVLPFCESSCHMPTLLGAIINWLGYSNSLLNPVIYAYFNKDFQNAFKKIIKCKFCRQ
Assay: Agonist activity at human 5-HT1A receptor expressed in HEK293 cells assessed as stimulation of cAMP levels at 1 uM relative to 8-OH-DPAT
Type: functional, cell-based
The label Met is reserved for Activity strictly under 40%; Not met covers values equal to or above it.

The following molecules have reported results that may help.
- MOLECULE: "Cn1c(=O)c2c(nc3n(CCCCN4CCN(c5ccccc5O)CC4)c(-c4ccccc4)cn23)n(C)c1=O"
  GROUP: "Met"
- MOLECULE: "Cc1cn2c3c(=O)n(C)c(=O)n(C)c3nc2n1CCCCCN1CCN(c2ccc(Cl)c(Cl)c2)CC1"
  GROUP: "Met"

Please state whether Activity is below 40% for Cn1c(=O)c2c(nc3n(CCCCCN4CCN(c5ccc(Cl)cc5)CC4)c(-c4ccccc4)cn23)n(C)c1=O
Met

Please state whether Activity is below 40% for Cc1cccc(N2CCN(CCCCn3c(C)cn4c5c(=O)n(C)c(=O)n(C)c5nc34)CC2)c1C
Not met

Please state whether Activity is below 40% for Cn1c(=O)c2c(nc3n(CCCCCN4CCN(c5ccccc5O)CC4)c(-c4ccccc4)cn23)n(C)c1=O
Met

---

biological target: 5-hydroxytryptamine receptor 6 (Homo sapiens); test: Displacement of [3H]LSD from human recombinant 5-HT6 receptor expressed in HEK293 cells assessed as total radioligand binding at 1 uM incubated for 60 mins by microbeta plate reader based method; assay type: cell-based
Items are presented alongside their recorded Activity.
Lab book: enter the figure in %, no units written.

- MOLECULE: "Cc1cccc(N2CCN(CCCCn3c(C)cn4c5c(=O)n(C)c(=O)n(C)c5nc34)CC2)c1C"
  EXPERIMENTAL_TARGET: "5-hydroxytryptamine receptor 6 (Homo sapiens)"
  EXPERIMENTAL_ENDPOINT: "Activity"
  MEASURE_UNIT: "%"
  READOUT_VALUE: 68
- MOLECULE: "Cn1c(=O)c2c(nc3n(CCCCN4CCN(c5ccc(Cl)c(Cl)c5)CC4)c(=O)ccn23)n(C)c1=O"
  EXPERIMENTAL_TARGET: "5-hydroxytryptamine receptor 6 (Homo sapiens)"
  EXPERIMENTAL_ENDPOINT: "Activity"
  MEASURE_UNIT: "%"
  READOUT_VALUE: 67
- MOLECULE: "Cc1cn2c3c(=O)n(C)c(=O)n(C)c3nc2n1CCCCN1CCN(c2ccc(Cl)c(Cl)c2)CC1"
  EXPERIMENTAL_TARGET: "5-hydroxytryptamine receptor 6 (Homo sapiens)"
  EXPERIMENTAL_ENDPOINT: "Activity"
  MEASURE_UNIT: "%"
  READOUT_VALUE: 46

Please look up its Activity: Cn1c(=O)c2c(nc3n(CCCCCN4CCN(c5ccccc5O)CC4)c(-c4ccccc4)cn23)n(C)c1=O
60

Please look up its Activity: Cn1c(=O)c2c(nc3n(CCCCCN4CCN(c5ccccc5O)CC4)ccn23)n(C)c1=O
67

Please look up its Activity: Cc1cn2c3c(=O)n(C)c(=O)n(C)c3nc2n1CCCCN1CCN(c2ccccc2O)CC1
90

Please look up its Activity: Cc1cccc(N2CCN(CCCCn3c(=O)ccn4c5c(=O)n(C)c(=O)n(C)c5nc34)CC2)c1C
94

Please look up its Activity: Cn1c(=O)c2c(nc3n(CCCCN4CCN(c5ccc(Cl)c(Cl)c5)CC4)ccn23)n(C)c1=O
67

Please look up its Activity: Cn1c(=O)c2c(nc3n(CCCCCN4CCN(c5ccc(Cl)c(Cl)c5)CC4)ccn23)n(C)c1=O
62

---

molecular target: 5-hydroxytryptamine receptor 6 (Homo sapiens, UniProt P50406); assay: Displacement of [3H]LSD from human recombinant 5-HT6 receptor expressed in HEK293 cells assessed as total radioligand binding at 1 uM incubated for 60 mins by microbeta plate reader based method; assay type: cell-based
Sequence (P50406 whole entry): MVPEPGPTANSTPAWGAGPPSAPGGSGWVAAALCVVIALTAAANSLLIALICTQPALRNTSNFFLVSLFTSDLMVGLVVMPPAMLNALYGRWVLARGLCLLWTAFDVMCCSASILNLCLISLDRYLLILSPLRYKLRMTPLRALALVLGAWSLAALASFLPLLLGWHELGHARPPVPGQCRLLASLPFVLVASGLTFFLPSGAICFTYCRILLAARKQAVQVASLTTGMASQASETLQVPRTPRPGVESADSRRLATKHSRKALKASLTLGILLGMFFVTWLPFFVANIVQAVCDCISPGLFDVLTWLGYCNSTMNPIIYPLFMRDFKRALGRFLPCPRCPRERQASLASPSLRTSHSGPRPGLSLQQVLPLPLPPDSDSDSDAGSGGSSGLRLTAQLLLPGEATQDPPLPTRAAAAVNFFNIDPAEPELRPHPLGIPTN
EXPERIMENTAL_ENDPOINT: Activity
Give the value; after it, write the unit.

Check out these entries, answers already filled in.
- COMPOUND: "Cn1c(=O)c2c(nc3n(CCCCCN4CCN(c5ccc(Cl)c(Cl)c5)CC4)c(=O)ccn23)n(C)c1=O"
  EXPERIMENTAL_TARGET: "5-hydroxytryptamine receptor 6 (Homo sapiens, UniProt P50406)"
  EXPERIMENTAL_ENDPOINT: "Activity"
  READOUT_VALUE: "79%"
- COMPOUND: "Cn1c(=O)c2c(nc3n(CCCCN4CCN(c5ccccc5O)CC4)c(-c4ccccc4)cn23)n(C)c1=O"
  EXPERIMENTAL_TARGET: "5-hydroxytryptamine receptor 6 (Homo sapiens, UniProt P50406)"
  EXPERIMENTAL_ENDPOINT: "Activity"
  READOUT_VALUE: "37%"

Please look up its Activity: CSc1ccc2c(c1)C(N1CCN(C)CC1)Cc1ccccc1S2 (stereo not drawn)
1%

---

Items are presented alongside their recorded Ki.
target: 5-hydroxytryptamine receptor 6 (Homo sapiens, UniProt P50406); test: Displacement of [3H]LSD from human recombinant 5-HT6 receptor expressed in HEK293 cells incubated for 60 mins by microbeta plate reader based method
Lab book: enter the figure in nM, no units written.

Check out these entries, answers already filled in.
- MOLECULE: "Cn1c(=O)c2c(nc3n(CCCCCN4CCN(c5ccc(Cl)cc5)CC4)c(=O)ccn23)n(C)c1=O"
  EXPERIMENTAL_ENDPOINT: "Ki"
  MEASURE_UNIT: "nM"
  READOUT_VALUE: 839
- MOLECULE: "Cc1cn2c3c(=O)n(C)c(=O)n(C)c3nc2n1CCCCN1CCN(c2ccc(Cl)cc2)CC1"
  EXPERIMENTAL_ENDPOINT: "Ki"
  MEASURE_UNIT: "nM"
  READOUT_VALUE: 1460
- MOLECULE: "Cn1c(=O)c2c(nc3n(CCCCN4CCN(c5ccc(Cl)cc5)CC4)c(=O)ccn23)n(C)c1=O"
  EXPERIMENTAL_ENDPOINT: "Ki"
  MEASURE_UNIT: "nM"
  READOUT_VALUE: 86
- MOLECULE: "Cn1c(=O)c2c(nc3n(CCCCCN4CCN(c5ccc(Cl)cc5)CC4)ccn23)n(C)c1=O"
  EXPERIMENTAL_ENDPOINT: "Ki"
  MEASURE_UNIT: "nM"
  READOUT_VALUE: 1590
- MOLECULE: "Cc1cn2c3c(=O)n(C)c(=O)n(C)c3nc2n1CCCCCN1CCN(c2ccc(Cl)c(Cl)c2)CC1"
  EXPERIMENTAL_ENDPOINT: "Ki"
  MEASURE_UNIT: "nM"
  READOUT_VALUE: 405

Then this compound:
Notebook entry, 5-hydroxytryptamine receptor 6 (Homo sapiens, UniProt P50406) assay: Ki of Cn1c(=O)c2c(nc3n(CCCCCN4CCN(c5ccc(Cl)cc5)CC4)c(-c4ccccc4)cn23)n(C)c1=O = ?
45
